# Tested on: 941728-121-R-J1-PDC complex spheroid viability
# assay protocol: Anticancer human tumor 941728-121-R-J1-PDC patient-derived lung adenocarcinoma cell line growth inhibition [RAS]; active = viability on the fitted dose curve at most 10% of control; inactive = the rest
# assay conditions: second compound 0.00949 µM; first compound 10 µM
The categories you may choose from are active, inactive

INSERT INTO assay_data (compound, label) VALUES
  ('CC(C)NCC(C(=O)N1CCN(c2ncnc3c2C(C)CC3O)CC1)c1ccc(Cl)cc1 (configuration not stated) + CCn1c(-c2cc(N3CCN(C)CC3)cnc2C(C)OC)c2c3cc(ccc31)-c1csc(n1)CC(NC(=O)C1CC1C)C(=O)N1CCCC(N1)C(=O)OCC(C)(C)C2', 'active');

Exercise: # fetch the recorded call for C[C@@H](NC(=O)c1ncnc(N)c1Cl)c1ncc(C(=O)Nc2cc(C(F)(F)F)c(Cl)cn2)s1 + CCn1c(-c2cccnc2C(C)OC)c2c3cc(ccc31)N1CCOC(CC(NC(=O)C(C(C)C)N(C)C(=O)C3(F)CCN(C(=O)C#CC(C)(C)N(C)C)CC3)C(=O)N3CCCC(N3)C(=O)OCC(C)(C)C2)C1 here
Solution: inactive

====

# Tested on: 941728-121-R-J1-PDC complex spheroid viability
# assay protocol: Anticancer human tumor 941728-121-R-J1-PDC cell line growth inhibition [RAS];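 also: spheroids exposed to compounds for 7 days before readout; 100% = DMSO vehicle control viability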
# assay conditions: second compound 0.03 µM; first compound 0.0316 µM; active compounds read low
metric: viability, T/C (%)
Give the quantity in %, number only.

INSERT INTO assay_data (compound, metric, reading_unit, numeric_value) VALUES
  ('Nc1ccn(C2OC(CO)C(O)C2(F)F)c(=O)n1 (configuration not stated) + CCn1c(-c2cccnc2C(C)OC)c2c3cc(ccc31)N1CCOC(CC(NC(=O)C(C(C)C)N(C)C(=O)C3(F)CCN(C(=O)C#CC(C)(C)N(C)C)CC3)C(=O)N3CCCC(N3)C(=O)OCC(C)(C)C2)C1', 'viability, T/C', '%', 21.4);

// switching to the query compound
Exercise: What value of measured viability, T/C is listed for C=CC(=O)Nc1cc(Nc2nccc(-c3cn(C)c4ccccc34)n2)c(OC)cc1N(C)CCN(C)C + CCn1c(-c2cccnc2C(C)OC)c2c3cc(ccc31)N1CCOC(CC(NC(=O)C(C(C)C)N(C)C(=O)C3(F)CCN(C(=O)C#CC(C)(C)N(C)C)CC3)C(=O)N3CCCC(N3)C(=O)OCC(C)(C)C2)C1 ?
Solution: 16.8

====

# System: 941728-121-R-J1-PDC complex spheroid viability
# assay protocol: Anticancer human tumor 941728-121-R-J1-PDC cell line growth inhibition [RAS];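 also: spheroids exposed to compounds for 7 days before readout; 100% = DMSO vehicle control viability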
# assay conditions: second compound 0.1 µM; first compound 0.00316 µM; active compounds read low
metric: viability, T/C (%)
# value in %; strip the unit string

INSERT INTO assay_data (compound, assayed_target, numeric_value) VALUES
  ('CC(C)n1nc(-c2ccc3oc(N)nc3c2)c2c(N)ncnc21 + C=CC(=O)N1CCN(c2nc(OCC3CCCN3C)nc3c(F)c(-c4nc(N)cc(C)c4C(F)(F)F)c(Cl)cc23)C(C)C1', '941728-121-R-J1-PDC complex spheroid viability', 19.4),
  ('O=C(c1ccc(F)c(F)c1Nc1ccc(I)cc1F)N1CC(O)([C@@H]2CCCCN2)C1 + C=CC(=O)N1CCN(c2nc(OCC3CCCN3C)nc3c(F)c(-c4nc(N)cc(C)c4C(F)(F)F)c(Cl)cc23)C(C)C1', '941728-121-R-J1-PDC complex spheroid viability', 22),
  ('CCN1CCN(Cc2ccc(Nc3ncc(F)c(-c4cc(F)c5nc(C)n(C(C)C)c5c4)n3)nc2)CC1 + C=CC(=O)N1CCN(c2nc(OCC3CCCN3C)nc3c(F)c(-c4nc(N)cc(C)c4C(F)(F)F)c(Cl)cc23)C(C)C1', '941728-121-R-J1-PDC complex spheroid viability', 18.8);

Exercise: For O=C(c1ccc(F)c(F)c1Nc1ccc(I)cc1F)N1CC(O)([C@@H]2CCCCN2)C1 + C#Cc1c(F)ccc2cc(O)cc(-c3ncc4c(N5CC6CCC(C5)N6)nc(OCC56CCCN5CC(F)C6)nc4c3F)c12 , what is its reported viability, T/C?
Solution: 70.6

Exercise: Any idea what viability, T/C was measured for Nc1ccn(C2OC(CO)C(O)C2(F)F)c(=O)n1 (stereo unspecified) + C#Cc1c(F)ccc2cc(O)cc(-c3ncc4c(N5CC6CCC(C5)N6)nc(OCC56CCCN5CC(F)C6)nc4c3F)c12 ?
Solution: 72.8

Exercise: # viability, T/C lookup, item Nc1ccn(C2OC(CO)C(O)C2(F)F)c(=O)n1 (stereo unspecified) + C=CC(=O)N1CCN(c2nc(OCC3CCCN3C)nc3c(F)c(-c4nc(N)cc(C)c4C(F)(F)F)c(Cl)cc23)C(C)C1
Solution: 16.9

====

Recorded measurements of viability, T/C, one per entry
# Tested on: 941728-121-R-J1-PDC complex spheroid viability
# assay protocol: Anticancer human tumor 941728-121-R-J1-PDC cell line growth inhibition [RAS];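 also: spheroids exposed to compounds for 7 days before readout; 100% = DMSO vehicle control viability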
# assay conditions: second compound 0.03 µM; first compound 0.0316 µM; active compounds read low
Note: unit % is implicit; provide only the numeric part.

INSERT INTO measurements (molecule, assayed_target, metric, numeric_value) VALUES
  ('CC(=O)OC12COC1CC(O)C1(C)C(=O)C(O)C3=C(C)C(OC(=O)C(O)C(NC(=O)OC(C)(C)C)c4ccccc4)CC(O)(C(OC(=O)c4ccccc4)C21)C3(C)C (configuration not stated) + CCn1c(-c2cccnc2C(C)OC)c2c3cc(ccc31)N1CCOC(CC(NC(=O)C(C(C)C)N(C)C(=O)C3(F)CCN(C(=O)C#CC(C)(C)N(C)C)CC3)C(=O)N3CCCC(N3)C(=O)OCC(C)(C)C2)C1', '941728-121-R-J1-PDC complex spheroid viability', 'viability, T/C', 17.6);

Exercise: Item CC(C)NCC(C(=O)N1CCN(c2ncnc3c2C(C)CC3O)CC1)c1ccc(Cl)cc1 (configuration not stated) + CCn1c(-c2cc(N3CCN(C)CC3)cnc2C(C)OC)c2c3cc(ccc31)-c1csc(n1)CC(NC(=O)C1CC1C)C(=O)N1CCCC(N1)C(=O)OCC(C)(C)C2 has what recorded viability, T/C?
Solution: 13.1

====

# Tested on: 941728-121-R-J1-PDC complex spheroid viability
# assay protocol: Anticancer human tumor 941728-121-R-J1-PDC cell line growth inhibition [RAS];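 also: spheroids exposed to compounds for 7 days before readout; 100% = DMSO vehicle control viability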
# assay conditions: second compound 0.00316 µM; first compound 0.316 µM; active compounds read low
metric: viability, T/C (%)
Output spec: scalar in %, unitless text.

INSERT INTO measurements (molecule, metric, numeric_value) VALUES
  ('O=C(c1ccc(F)c(F)c1Nc1ccc(I)cc1F)N1CC(O)([C@@H]2CCCCN2)C1 + C=CC(=O)N1CCN(c2nc(OCC3CCCN3C)nc3c(F)c(-c4nc(N)cc(C)c4C(F)(F)F)c(Cl)cc23)C(C)C1', 'viability, T/C', 12.7),
  ('C[C@@H](NC(=O)c1ncnc(N)c1Cl)c1ncc(C(=O)Nc2cc(C(F)(F)F)c(Cl)cn2)s1 + C=CC(=O)N1CCN(c2nc(OCC3CCCN3C)nc3c(F)c(-c4nc(N)cc(C)c4C(F)(F)F)c(Cl)cc23)C(C)C1', 'viability, T/C', 21.2),
  ('CC(C)NCC(C(=O)N1CCN(c2ncnc3c2C(C)CC3O)CC1)c1ccc(Cl)cc1 (configuration not stated) + C=CC(=O)N1CCN(c2nc(OCC3CCCN3C)nc3c(F)c(-c4nc(N)cc(C)c4C(F)(F)F)c(Cl)cc23)C(C)C1', 'viability, T/C', 16.5),
  ('CCN1CCN(Cc2ccc(Nc3ncc(F)c(-c4cc(F)c5nc(C)n(C(C)C)c5c4)n3)nc2)CC1 + C=CC(=O)N1CCN(c2nc(OCC3CCCN3C)nc3c(F)c(-c4nc(N)cc(C)c4C(F)(F)F)c(Cl)cc23)C(C)C1', 'viability, T/C', 15.6);

Exercise: Tell me the measured viability, T/C of CC1(O)CCCC1n1c(=O)c(C(F)F)cc2cnc(NC3CCN(S(C)(=O)=O)CC3)nc21 (configuration not stated) + C=CC(=O)N1CCN(c2nc(OCC3CCCN3C)nc3c(F)c(-c4nc(N)cc(C)c4C(F)(F)F)c(Cl)cc23)C(C)C1 , please.
Solution: 21.8

Exercise: // lookup viability, T/C for NC1c2ccccc2OC12CCN(c1cnc3c(N4CCCc5ncccc54)n[nH]c3n1)CC2 (configuration not stated) + C=CC(=O)N1CCN(c2nc(OCC3CCCN3C)nc3c(F)c(-c4nc(N)cc(C)c4C(F)(F)F)c(Cl)cc23)C(C)C1
Solution: 15.6

Exercise: May I ask what viability, T/C has been recorded for C=CC(=O)Nc1cc(Nc2nccc(-c3cn(C)c4ccccc34)n2)c(OC)cc1N(C)CCN(C)C + C=CC(=O)N1CCN(c2nc(OCC3CCCN3C)nc3c(F)c(-c4nc(N)cc(C)c4C(F)(F)F)c(Cl)cc23)C(C)C1 ?
Solution: 17.6
